Biological target: UniProtKB P51449
Sequence (P51449 other isoform, or with tags, fused parts or gaps, species assumed): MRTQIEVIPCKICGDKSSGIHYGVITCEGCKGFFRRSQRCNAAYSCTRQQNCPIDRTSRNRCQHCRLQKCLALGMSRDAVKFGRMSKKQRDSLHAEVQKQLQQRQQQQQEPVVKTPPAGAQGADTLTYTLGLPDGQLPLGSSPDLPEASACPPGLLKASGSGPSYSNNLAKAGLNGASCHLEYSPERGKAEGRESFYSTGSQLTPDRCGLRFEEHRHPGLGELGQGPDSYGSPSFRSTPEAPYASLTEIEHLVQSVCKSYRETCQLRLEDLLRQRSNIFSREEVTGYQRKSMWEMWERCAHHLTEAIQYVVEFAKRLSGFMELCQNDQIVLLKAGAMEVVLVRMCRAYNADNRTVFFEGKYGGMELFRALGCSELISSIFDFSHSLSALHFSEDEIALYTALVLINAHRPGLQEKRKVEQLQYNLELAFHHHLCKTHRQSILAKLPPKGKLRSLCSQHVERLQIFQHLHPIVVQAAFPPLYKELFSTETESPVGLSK
Experiment: RORγt luciferase reporter assay in CHO-K1 cells (RORgamma inhibitory activity)
Settings: CHO-K1 cells stably transfected with RORγt, transiently transfected with pFR Luc; 18-20 hours treatment; luminescence; read-out: In-vitro IC50 value IC50
pIC50: −log10 of the molar value.
// reported pIC50 for each item listed

Example compounds with recorded pIC50:
CCS(=O)(=O)c1ccc(CC(=O)Nc2ccc(C3=CCC(=O)CC3)c(C(F)(F)F)c2)cc1 [Example 24] :: 7.30 to 11.00
CCS(=O)(=O)c1ccc(CC(=O)Nc2ccc(C3=CCC(O)CC3)c(C(F)(F)F)c2)cc1 (centres unmarked) [Example 34] :: 7.30 to 11.00
CCS(=O)(=O)c1ccc(CC(=O)Nc2ccc3c(c2)CCCC3(O)c2ccc(OC)cc2)cc1 (centres unmarked) [Example 43] :: 7.30 to 11.00
CCS(=O)(=O)c1ccc(CC(=O)Nc2ccc(C3CCCCC3)cc2)cc1 [Example 25] :: 7.30 to 11.00

Next compound, please.
Query (compound): CCS(=O)(=O)c1ccc(CC(=O)Nc2ccc(OC3CCCCC3)c(C(F)(F)F)c2)cc1 [Example 23] ; field requested: pIC50
7.00 to 7.30
